- assayDetails: MicroPET blood and normal organ uptake in T47D and MDA-MB-435 tumor-bearing nude mice
- settings: nude, mouse, liver, iv, total radioactivity, Liver uptake, average of eight mice, 24 h
propertyName: tissue uptake at 24 h

Query: For CSCC[C@H](NC(=O)[C@H](CC(C)C)NC(=O)[C@H](Cc1c[nH]cn1)NC(=O)CNC(=O)[C@@H](NC(=O)[C@H](C)NC(=O)[C@H](Cc1c[nH]c2ccccc12)NC(=O)[C@H](CCC(N)=O)NC(=O)CCCCCNC(=O)CC[C@H](NC(=S)Nc1ccc(C[C@H]2CN(CC(=O)O)CCN(CC(=O)O)CCN2CC(=O)O)cc1)C(=O)NCCCC[C@@H]1NC(=O)[C@@H](Cc2ccc(O)cc2)NC(=O)[C@H](CC(=O)O)NC(=O)CNC(=O)[C@H](CCCNC(=N)N)NC1=O)C(C)C)C(N)=O [^64Cu-NOTA-RGD-BBN, metal not drawn] , write its tissue uptake at 24 h.
Response: 2.24 %ID/g

====

- assayDetails: MicroPET blood and normal organ uptake in T47D and MDA-MB-435 tumor-bearing nude mice
- settings: nude, mouse, blood, iv, total radioactivity
- Excerpt: The T47D or MDA-MB435 tumor uptake is expressed as the average of each tracer in four mice, while the normal organ uptake is expressed as the average of each tracer in eight mice (four T47D tumor-bearing mice and four MDA-MB-435 tumor-bearing mice per tracer).
propertyName: tissue uptake at 1 h (%ID/g)
// units = %ID/g; emit number, no label

Query: Supply tissue uptake at 1 h value. Item: CSCC[C@H](NC(=O)[C@H](CC(C)C)NC(=O)[C@H](Cc1c[nH]cn1)NC(=O)CNC(=O)[C@@H](NC(=O)[C@H](C)NC(=O)[C@H](Cc1c[nH]c2ccccc12)NC(=O)[C@H](CCC(N)=O)NC(=O)CCCCCNC(=O)CC[C@H](NC(=O)COCCOCCOCCNC(=O)c1ccc([18F])cc1)C(=O)NCCCC[C@@H]1NC(=O)[C@@H](Cc2ccc(O)cc2)NC(=O)[C@H](CC(=O)O)NC(=O)CNC(=O)[C@H](CCCNC(=N)N)NC1=O)C(C)C)C(N)=O [^18F-FB-PEG3-RGD-BBN]
Response: 0.41

====

- assayDetails: in vivo
- settings: male, athymic nude, mouse, in vivo, iv, 5.5 MBq, total radioactivity, PC-3 tumor uptake with RGD and BBN blocking
propertyName: tissue uptake at 1 h (%ID/g)
Write the number in %ID/g without appending the unit.

Query: Read off the recorded tissue uptake at 1 h for CSCC[C@H](NC(=O)[C@H](CC(C)C)NC(=O)[C@H](Cc1c[nH]cn1)NC(=O)CNC(=O)[C@@H](NC(=O)[C@H](C)NC(=O)[C@H](Cc1c[nH]c2ccccc12)NC(=O)[C@H](CCC(N)=O)NC(=O)CCCCCNC(=O)CC[C@H](NC(=S)Nc1ccc(C[C@H]2CN(CC(=O)O)CCN(CC(=O)O)CCN2CC(=O)O)cc1)C(=O)NCCCC[C@@H]1NC(=O)[C@@H](Cc2ccc(O)cc2)NC(=O)[C@H](CC(=O)O)NC(=O)CNC(=O)[C@H](CCCNC(=N)N)NC1=O)C(C)C)C(N)=O [^64Cu-NOTA-RGD-BBN, metal not drawn]
Response: 0.54

====

- assayDetails: MicroPET blood and normal organ uptake in T47D and MDA-MB-435 tumor-bearing nude mice
- settings: nude, mouse, muscle, iv, total radioactivity, Muscle uptake, average of eight mice, 0.5 h
propertyName: tissue uptake at 0.5 h
Param answer (str): number followed by unit.

Query: Output tissue uptake at 0.5 h of CSCC[C@H](NC(=O)[C@H](CC(C)C)NC(=O)[C@H](Cc1c[nH]cn1)NC(=O)CNC(=O)[C@@H](NC(=O)[C@H](C)NC(=O)[C@H](Cc1c[nH]c2ccccc12)NC(=O)[C@H](CCC(N)=O)NC(=O)CCCCCNC(=O)CC[C@H](NC(=S)Nc1ccc(C[C@H]2CN(CC(=O)O)CCN(CC(=O)O)CCN2CC(=O)O)cc1)C(=O)NCCCC[C@@H]1NC(=O)[C@@H](Cc2ccc(O)cc2)NC(=O)[C@H](CC(=O)O)NC(=O)CNC(=O)[C@H](CCCNC(=N)N)NC1=O)C(C)C)C(N)=O [^68Ga-NOTA-RGD-BBN, metal not drawn]
Response: 1.33 %ID/g
